Consider the following variants; for each one, report its protein stability index.
B1: SETD8 (parent)
chain: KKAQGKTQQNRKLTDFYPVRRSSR

variants of: B1; assay: protein stability index of a GFP-peptide fusion (GPS, HEK-293T) (PSI 1-6); higher = more stable; conditions: c terminus: a fixed tail appended;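 note: lentivirally expressed fusions sorted by FACS into six bins by GFP to DsRed ratio, PSI derived from sequencing read proportions per bin multiplied by bin number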

The cases that follow already have their protein stability index on record.
>>> experimental_result("T14P")
2.4
>>> experimental_result("V19K")
2.02
>>> experimental_result("S22Y")
3.06

Batch: protein stability index for all items listed.
1. D15E
2. Y17K
3. G5D
4. A3Y

Key:
[4.29, 4.5, 2.89, 2.73]
